Ref: the supplement of paper PMC8728848

target: Man(b1-4)GlcNAc; experiment: glycan array binding signal (z-score within array); higher = stronger binding; details: glycan notation: IUPAC condensed, linker removed
About 410 targets per protein were measured; listed, in parts, are those with the strongest signals and a random draw of the rest.
Exercise: state measured glycan array binding signal (z-score) for each of the binders provided.
Lab note: jot down the number only; don't add units.

Q) Given Pwp5 ND (Candida glabrata) (protein) MGSSHHHHHHSSGLVPRGSHMASANPVPLTNVCYFPEEYPRQAGFRAITAGLASTILQGSVDELLNYSGLSSLTTQQTTTTTPNFQLPTLPLPTNVYGLTVVPLYLLVQLQGYFVPPVSGQYTFSLENTNDAAIIFFGNPSAFPCGDLSAWPQASADDITVTDGTFPSRTLFLKAGVAYPMRISYYNSLGSGNLAVSFTDPGGTKRTNWNGYIWRYNSCSTCTYT , respond with its glycan array binding signal (z-score).
A) -0.41

Q) Given LF82 (Escherichia coli) (protein) ADWGPCRTASGDPFIFVTSFTKNIQNPTDNVTGQTYPDFYQWALGDKYSGVCECPSPNPTEARPTLYKTESTLAAGHNSTYFKITNNLEVSTRVYIANVGNVQVPFINKSNSQPGRECDQPTFGWTTGSKGQLSLYIAKPFVGEQNIPQTIIVSVFGTKKENVYSSVPISQVLLSGKVTVTQGCELAAGTSLDIDFGEYQAHDFKGRTGQPPQNVQKIQKELTFNCTNISDGVHIYLSLEGTPNAAYPSAISLGNADVGAVIEDGKGNILKPNDSNSLLEMNPGSLYEYVKRKVTTTITAYPVSTTGKLPAAGDYSGVATMHVELDGGGGGGGGGGATTDLGAKGTLKFSLKISQGHHHHHH , respond with its glycan array binding signal (z-score).
A) 0.456

Q) Given SfaEH (Escherichia coli), Q1RDG5 (protein) LLCRNNQTGQVFNSGDTSFRVNVSPVVQYDKSISVLDLSQLVSCQNEDSTGQNYDYLKILKGSGFSPALDTKTYGRLDFTSRPTGYARQLPLQFDLQVTEAFYQYGVWKPFPAKLYLYPAPGVFGKVINNGDLLATLYVNKFSTKGQEAGERNFTWRFYATNDVYIQTGTCRVSSNNVKVDLPSYPGGPVTVPLTVRCDQTQSVSYTLSGPVTGSGNTVFANTAASGSGGVGIQLSDNVGPVPAGQPRSLGQVGSSPVSLGLKASYALTGQASPTPGAVQSVINVTFSYN , respond with its glycan array binding signal (z-score).
A) -0.49

Q) Given Epa12 (Candida glabrata) (protein) MGSSHHHHHHSSGLVPRGSHMLEPDNSLQIFDSFLSNPSKYPLGCSPKITNPKKGLSMELYSYPYRKKGSHPCWDPAYLDPNFPRVGYKKNKLIARVDGVSGDINFNFHPKRQCTPIADYLPPNFNYNEPITTTNFTMLLYGYFKPKVTGLHTFDISADDLLFMNFGAGNAFDCCRRDSTADTFGNYVAWAIWGRRIVRNKLTVRLDKGIYYPLRLFFNNRDYYGQMRLTFKTEHGSERITDFSDYFFSVDDTSEGCPGLITYESECADVKSSTVLETDYITIQAEKE , respond with its glycan array binding signal (z-score).
A) -0.301

Q) Given SpnanA (Streptococcus pneumoniae), P62575 (protein) MVIEKEDVETNASNGQRVDLSSELDKLKKLENATVHMEFKPDAKAPAFYNLFSVSSATKKDEYFTMAVYNNTATLEGRGSDGKQFYNNYNDAPLKVKPGQWNSVTFTVEKPTAELPKGRVRLYVNGVLSRTSLRSGNFIKDMPDVTHVQIGATKRANNTVWGSNLQIRNLTVYNRALTPEEVQKRS , respond with its glycan array binding signal (z-score).
A) -0.307

Q) Given Pwp4 (Candida glabrata) (protein) MGSSHHHHHHSSGLVPRGSHMASVGNPITVSNVCSFPKNWHRTAGFRALTARLGIGIQSDSYKELLNYPGTFQLTTQQSSTTKPNFQISGLVGNIYGLTIVPSYLLVELTGYFVPPVSGEYTFSLEGSDDAAIIFIANPSTFKCGHVEDWPTAYDNDVTVTESIHATRTIYMIEGVAYPIRIAYYNGLSLGKLQASFTDPEGVKRVDWNGYIWRYDSCDTCSYV , respond with its glycan array binding signal (z-score).
A) -0.403

Q) Given Mg3lysM (Mycosphaerella graminicola) (protein) APQNPPTSCSAAPQPTGTGSPGTVCGSTTFTNYTVKAGDTLGAIAKQYNSGVCDIAKVNGIDNPDYIKPDQVLSIPANCVTPDNTSCVKPVPVITNTCVLGVGSTYTVKSGDSFSAIATSFNITLASLEARNPQIPNYDLIFPGQVINTPLCPNSVCDSIGTYVIESGDIFYNLAQSNNVTVGQLESLNVNVNVTDIHPGDIIILPHNCHNITASA , respond with its glycan array binding signal (z-score).
A) 0.12
